- Target Under Test: cholesterol side-chain cleavage cytochrome P450 (mitochondrial) (Bos taurus, UniProt P00189)
- Sequence (P00189 whole entry): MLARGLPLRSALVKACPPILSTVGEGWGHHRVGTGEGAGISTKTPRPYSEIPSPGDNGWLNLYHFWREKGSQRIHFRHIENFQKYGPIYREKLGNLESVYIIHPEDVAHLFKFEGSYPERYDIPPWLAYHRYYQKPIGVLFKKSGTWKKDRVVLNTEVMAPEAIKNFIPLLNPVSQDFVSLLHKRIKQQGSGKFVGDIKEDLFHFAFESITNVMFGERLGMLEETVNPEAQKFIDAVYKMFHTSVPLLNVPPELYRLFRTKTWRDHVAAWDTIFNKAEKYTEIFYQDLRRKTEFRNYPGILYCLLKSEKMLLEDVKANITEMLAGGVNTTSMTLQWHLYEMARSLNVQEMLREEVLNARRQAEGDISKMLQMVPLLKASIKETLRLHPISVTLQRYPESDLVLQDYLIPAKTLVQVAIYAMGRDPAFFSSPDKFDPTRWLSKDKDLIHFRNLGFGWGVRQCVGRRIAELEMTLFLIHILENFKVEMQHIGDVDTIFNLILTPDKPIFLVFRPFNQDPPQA
- Measurement Protocol: Percent inhibition of cholesterol side-chain cleavage cytochrome P450 at 0.1 uM in bovine adrenocortical mitochondrial acetone powder preparations
- Experimental Context: cattle
Kindly supply the reported inhibition at 0.1 µM values for the records listed here.
Answer in %, number only, no unit symbol.

Can you look up the measured inhibition at 0.1 µM of CC(NC(=O)c1ccccc1)C1CCC2C3CC=C4CC(O)CCC4(C)C3CCC12C (stereo unspecified) for me?
9

Same question, COc1ccc(CCNC(C)C2CCC3C4CC=C5CC(O)CCC5(C)C4CCC23C)cc1 (stereo unspecified) this time
-6

Could you do the same for CC(NC(=O)Cc1ccc(Cl)cc1)C1CCC2C3CC=C4CC(O)CCC4(C)C3CCC12C (stereo unspecified) , please?
25

Continue with CC(NC(=O)CCc1ccccc1)C1CCC2C3CC=C4CC(O)CCC4(C)C3CCC12C (stereo unspecified)
19

Queued: CC(NC(=O)Cc1ccccc1)C1CCC2C3CC=C4CC(O)CCC4(C)C3CCC12C (stereo unspecified)
28

Same question, COc1ccc(CC(=O)NC(C)C2CCC3C4CC=C5CC(O)CCC5(C)C4CCC23C)cc1 (stereo unspecified) this time
38
